test: Intrinsic clearance in human liver microsomes; type: ADME, Microsome
Here the recorded microsomal CLint is given for each entry.

The following molecules have reported results that may help.
C[C@@H]1CNCCN1c1cc(=O)n(C)c(CCc2ccccc2Cl)n1 = 24 µL/min/mg
Cc1ccccc1OCc1nc(N2CCNCC2)cc(=O)n1C = < 7 µL/min/mg
CCn1c(COc2cc(F)ccc2Cl)nc(N2CCNCC2)cc1=O = < 7 µL/min/mg
Cc1ccc(Cl)cc1OCc1nc(N2CCNCC2)cc(=O)n1C = < 7 µL/min/mg
C[C@@H]1CNCCN1c1cc(=O)n(C)c(CCc2ccccc2)n1 = < 7 µL/min/mg

Prompt line: Specify microsomal CLint for "Cc1cc(=O)n(CCCOc2ccccc2)c(N2CCNC[C@H]2C)n1" and stop.
Response line: 16 µL/min/mg

Prompt line: Specify microsomal CLint for "Cc1ccccc1CCc1nc(N2CCNC[C@H]2C)cc(=O)n1C" and stop.
Response line: 18 µL/min/mg

Prompt line: Specify microsomal CLint for "C[C@@H]1CNCCN1c1cc(=O)n(C)c(CCc2cccc(Cl)c2)n1" and stop.
Response line: < 10 µL/min/mg

Prompt line: Specify microsomal CLint for "Cn1c(COc2cccc(Cl)c2)nc(N2CCNCC2)cc1=O" and stop.
Response line: < 7 µL/min/mg

Prompt line: Specify microsomal CLint for "Cn1c(COc2ccc(Cl)cc2)nc(N2CCNCC2)cc1=O" and stop.
Response line: < 7 µL/min/mg

Prompt line: Specify microsomal CLint for "Cn1c(CCc2ccccc2)nc(N2CCNCC2)cc1=O" and stop.
Response line: < 7 µL/min/mg

---

molecular target: 5-hydroxytryptamine receptor 2C (Homo sapiens); assay: Agonist activity at human recombinant 5HT2C receptor transfected in CHO K1 cells assessed as calcium mobilisation at 10 uM by FLIPR assay relative to serotonin; type: functional, cell-based
Measured attribute: Emax (%)

C[C@@H]1CNCCN1c1cc(=O)n(C)c(CCc2cccc(Cl)c2)n1 = 59
C[C@@H]1CNCCN1c1cc(=O)n(C)c(CCc2ccccc2)n1 = 50
Cc1ccccc1CCc1nc(N2CCNC[C@H]2C)cc(=O)n1C = 59
Cn1c(COc2cccc(Cl)c2)nc(N2CCNCC2)cc1=O = 66
Cc1ccc(Cl)cc1OCc1nc(N2CCNCC2)cc(=O)n1C = 84
Cn1c(COc2cccc(C#N)c2)nc(N2CCNCC2)cc1=O = 63
Cc1ccc(F)cc1OCc1nc(N2CCNCC2)cc(=O)n1C = 84
CCn1c(COc2cc(F)ccc2Cl)nc(N2CCNCC2)cc1=O = 46
CCn1c(COc2cccc(C#N)c2)nc(N2CCNCC2)cc1=O = 77
Cn1c(CCc2ccccc2)nc(N2CCNCC2)cc1=O = 43

[I] Cc1cc(=O)n(CCCOc2cccc(Cl)c2)c(N2CCNCC2)n1
[II] Cn1c(CCc2cccc(Cl)c2)nc(N2CCNCC2)cc1=O
Prompt line: // pick larger Emax from pair: I vs II Record your answer as the label of the chosen record.
Response line: I

[a] Cc1cc(=O)n(CCCOc2ccc(Cl)cc2)c(N2CCNCC2)n1
[b] C[C@@H]1CNCCN1c1cc(=O)n(C)c(CCc2ccccc2C(F)(F)F)n1
Prompt line: From the items above, decide which of a and b has the lower Emax reading. Record your answer as the label of the chosen record.
Response line: b

[I] Cn1c(COc2ccccc2C(F)(F)F)nc(N2CCNCC2)cc1=O
[II] CCn1c(CCc2ccccc2Cl)nc(N2CCNCC2)cc1=O
Prompt line: // pick larger Emax from pair: I vs II Record your answer as the label of the chosen record.
Response line: I

[P] Cc1ccccc1OCc1nc(N2CCNCC2)cc(=O)n1C
[Q] Cc1cc(=O)n(CCCOc2ccccc2F)c(N2CCNCC2)n1
Prompt line: // pick larger Emax from pair: P vs Q Record your answer as the label of the chosen record.
Response line: Q
(Q: 92%, P: 60%)
